Form field: growth inhibition (one value per entry).
Experiment Summary: NCI Yeast Anticancer Drug Screen. Data for the cln2 rad14 strain (AID 165);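 note: 0% = growth equal to vehicle treated cultures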
Applied Conditions: S. cerevisiae cln2 rad14 strain, at 5.0 µM (retest, dose inferred, filed as 0.5), active compounds read high
About 79,000 compounds went through this panel and 15% of them were active in at least one assay; those are over-represented in the sample as a whole.
Just the number in %, nothing appended.

>  <Structure Notation>
CCn1c2ccccc2c2ccc(N=Cc3ccc(N(C)C)cc3)cc21

>  <growth inhibition, %>
0

$$$$
>  <Structure Notation>
Nc1ccc2c(n1)NCC/C2=N\Nc1ccccc1

>  <growth inhibition, %>
-2

$$$$
>  <Structure Notation>
O=C1c2cccc(NCCCNCCO)c2C(=O)c2cccc(NCCCNCCO)c21

>  <growth inhibition, %>
30

$$$$
>  <Structure Notation>
N=C1N(c2ccccc2)C(=S)C(=Nc2ccccc2)N1c1ccccc1

>  <growth inhibition, %>
9

$$$$

Need growth inhibition of Cc1ccnc2c1c(=O)c1ccccc1n2C , thanks.
-6

Here is the next compound: O=C1c2ccccc2C(=O)c2c(O)c(O)cc(O)c21
59

Here is the next compound: Cc1cc2c(c(Br)c1O)Oc1c(cc(C)c(O)c1Br)C21OC(=O)c2ccccc21
36

Here is the next compound: CCOc1ccc(NC(=O)C(=O)NO)cc1
6

Here is the next compound: c1ccc(Cc2cc3ccccc3c3ccccc23)cc1
16

* * *

Experiment Summary: NCI Yeast Anticancer Drug Screen. Data for the sgs1 mgt1 strain (AID 161);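 note: 0% = growth of cultures given vehicle only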
Applied Conditions: S. cerevisiae sgs1 mgt1 strain, at 50.0 µM
This is part of a sample that, as a whole, favours compounds with a hit. Of some 79,000 tested, about 15% had one in any assay. Activity calls are given as the source filed them. Cut-off read from the data, not from the text of the source: active = growth inhibition above about 70%; inactive = the rest.
Result category, one only: active, inactive

Past entries and their recorded results:
>  <Molecule>
CCCC(C)NCCOC(=O)C(c1ccccc1)C1CCCCC1 (stereo not given)

>  <Label Value>
active

$$$$
>  <Molecule>
COc1ccc(NC(=O)C(=O)NO)c(OC)c1

>  <Label Value>
active

$$$$
>  <Molecule>
CCCCCCCCCCCCCCCCCC(=O)OC(Cc1ccccc1)C(=O)O (stereo not given)

>  <Label Value>
inactive

$$$$

How did this test come out for COc1ccc(N/N=C(\CCN(C)C)c2ccccc2)cc1 ?
inactive

Here is the next molecule: CCCCCCCCCCCCCCCC(=O)NCC[N+](C)(C)C
active

Here is the next molecule: O=S(=O)(CC(Cl)c1ccccc1)c1nc2ccccc2s1 (stereo not given)
active

Here is the next molecule: O=C(CC1(O)C(=O)Nc2ccccc21)c1ccc(Cl)c(Cl)c1 (stereo not given)
active

* * *

Experiment Summary: NCI Yeast Anticancer Drug Screen. Data for the bub3 strain (AID 167)
Applied Conditions: S. cerevisiae bub3 mutant strain, at 50.0 µM
About 79,000 compounds went through this panel and 15% of them were active in at least one assay; those are over-represented in the sample as a whole. Activity calls are given as the source filed them. No stated cut-off is given here; in the data, active means growth inhibition above about 70%; inactive means the rest.
Result category, one only: active, inactive

>  <Compound>
C=CCNC(=O)c1ccccc1SC(C)=O

>  <Label Value>
active

$$$$
>  <Compound>
CCOC(=O)C(Cc1c[nH]c2cc([N+](=O)[O-])ccc12)NS(=O)(=O)c1ccc2ccccc2c1 (centres undefined)

>  <Label Value>
active

$$$$
>  <Compound>
O=C(NCCCCCCNC(=O)n1cc(F)c(=O)[nH]c1=O)NCCCOCCOCCOCCOCCOCCOCCOCCOCCOCCOCCOCCOCCOCCOCCOCCOCCOCCOCCOCCOCCOCCCNC(=O)C(O)C(O)C(OC1OC(CO)C(O)C(O)C1O)C(O)CO (centres undefined)

>  <Label Value>
inactive

$$$$
>  <Compound>
C=CC(=O)OCCOc1ccc(Cl)cc1Cl

>  <Label Value>
inactive

$$$$
>  <Compound>
C=C1CC2(CC(c3ccccc3C)OC(c3ccccc3C)C2)OC1=O (centres undefined)

>  <Label Value>
active

$$$$

How did this test come out for CCOC(=O)c1c(CN2CCNCC2)nc2ccc(Cl)cc2c1-c1ccccc1 ?
inactive

Here is the next compound: COC1C(O)C(C)OC(OC2C(Oc3cccc4c(O)c5c(=O)oc6ccc(C)c7c(=O)oc(c34)c5c67)OC(C)C3O[C@H](c4ccccc4)OC32)C1O (some centres undefined)
active

Here is the next compound: CN(CCN1C(=O)c2cccc3cccc(c23)C1=O)CCN1C(=O)c2cccc3cccc(c23)C1=O
active

Here is the next compound: O=S(=O)(O)c1ccc(NN(c2c(O)ccc3ccccc23)S(=O)(=O)O)cc1
inactive

* * *

Experiment Summary: NCI Yeast Anticancer Drug Screen. Data for the bub3 strain (AID 167)
Applied Conditions: S. cerevisiae bub3 mutant strain, at 5.0 µM (retest, dose inferred, filed as 0.5), active compounds read high
This is part of a sample that, as a whole, favours compounds with a hit. Of some 79,000 tested, about 15% had one in any assay. The source made the active and inactive calls. No stated cut-off is given here; in the data, active means growth inhibition above about 70%; inactive means the rest.
Readout Type: growth inhibition

>  <Compound>
Nc1cc2ccc(O)cc2c2ccccc12

>  <growth inhibition>
2% (inactive)

$$$$
>  <Compound>
O=C(O)/C(=C(/c1ccccc1)c1ccc(Cl)cc1)c1ccccc1

>  <growth inhibition>
43% (inactive)

$$$$
>  <Compound>
CCCCCCC(C(=O)OCC)N1C(=O)c2ccccc2S1(=O)=O (centres undefined)

>  <growth inhibition>
10% (inactive)

$$$$
>  <Compound>
C/C(N=NC(=S)N1CCCCCC1)=C1\C=CC=CN1O

>  <growth inhibition>
21% (inactive)

$$$$
>  <Compound>
Nc1ccc(Cc2ccc(Br)cc2)cc1

>  <growth inhibition>
30% (inactive)

$$$$
>  <Compound>
C[Si]1(C)CN(CCN)C[Si](C)(C)O1

>  <growth inhibition>
-2% (inactive)

$$$$

Need growth inhibition of COc1cccc2c1C(=O)c1c(O)c3c(c(O)c1C2=O)C[C@@](O)(C(C)=O)C[C@@H]3OC1CC(O)C(O)C(C)O1 (some centres undefined) , thanks.
34% (inactive)

Here is the next compound: O=C1OC2=C(c3ccccc3)CCCC2C1=O (centres undefined)
0% (inactive)

Here is the next compound: COc1ccc(C2SC(N)=Nc3c2c(C)nn3C(=O)c2ccc(Cl)cc2)cc1OC (centres undefined)
-18% (inactive)

* * *

Experiment Summary: NCI Yeast Anticancer Drug Screen. Data for the cln2 rad14 strain (AID 165);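 note: 0% = growth equal to vehicle treated cultures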
Applied Conditions: S. cerevisiae cln2 rad14 strain, at 50.0 µM
Compounds without any hit were thinned out: in the full panel of roughly 79,000, 15% have a hit. Active and inactive are the calls of the source. No stated cut-off is given here; in the data, active means growth inhibition above about 70%; inactive means the rest.
Result category, one only: active, inactive

>  <Compound>
COc1cc(O)ccc1C(=S)SC

>  <Label Value>
inactive

$$$$
>  <Compound>
COc1ccc(/C=C/NC=O)cc1

>  <Label Value>
inactive

$$$$
>  <Compound>
O=C1C(Cl)=C(N2CCN(C3=C(Cl)C(=O)c4ccccc4C3=O)CC2)C(=O)c2ccccc21

>  <Label Value>
active

$$$$
>  <Compound>
O=C1c2cc3c(cc2CC12Cc1ccccc1C2)CCC3

>  <Label Value>
inactive

$$$$

How did this test come out for COc1ccc(-c2c(C#N)c(-c3ccc(C)cc3)n(NS(=O)(=O)c3ccccc3)c(=O)c2C#N)cc1 ?
inactive

Here is the next compound: O=C(/C(=C\c1ccc(Cl)c(Cl)c1)c1ccccc1)c1ccc(O)cc1
active

Here is the next compound: CC1(O)Cc2c(O)c3c(c(O)c2CC1O)C(=O)C=CC3=O (stereo unspecified)
inactive

Here is the next compound: COc1c(CBr)c(CBr)c(OC)c2c1C(=O)c1ccccc1C2=O
inactive

Here is the next compound: COC1OC2COC(c3ccccc3)OC2C2OC12 (stereo unspecified)
inactive

Here is the next compound: Cc1n(CC(C)C)c2c([n+]1C)C(=O)c1ccccc1C2=O
active

Here is the next compound: O=Nc1ccc(C=C2C(=O)C=CC2=O)cc1
active

* * *

Experiment Summary: NCI Yeast Anticancer Drug Screen. Data for the sgs1 mgt1 strain (AID 161);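 note: 0% = growth of cultures given vehicle only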
Applied Conditions: S. cerevisiae sgs1 mgt1 strain, at 5.0 µM (retest, dose inferred, filed as 0.5), active compounds read high
The panel holds about 79,000 compounds, 15% with a hit somewhere; the sample as a whole holds those more often.
Readout Type: growth inhibition (%)
Just the number in %, nothing appended.

For orientation, consider the following solved cases.
>  <Compound>
COc1ccc(CC(=O)c2ccc(O)cc2O)cc1

>  <Value>
-22

$$$$
>  <Compound>
O=[N+]([O-])c1ccc2ccccc2c1O

>  <Value>
5

$$$$
>  <Compound>
CCn1c(-c2c(Cl)cc(O)cc2Cl)cc2c(Cl)cc(O)cc21

>  <Value>
17

$$$$
>  <Compound>
O=C1OC(c2ccccc2)C(c2ccccc2)=C1c1ccccc1 (centres undefined)

>  <Value>
-3

$$$$
>  <Compound>
O=[N+]([O-])c1cc([N+](=O)[O-])c2ccccc2c1NS(=O)(=O)/C=C/c1ccccc1

>  <Value>
16

$$$$

Now examine the next entry.
Need growth inhibition of O=C1C=CC(=O)C(c2ccc3ccccc3c2)=C1 , thanks.
85

Origin of measurements: PubChem BioAssay (NCI)
